System: BMKC
assay.protocol: Anti-cancer assay, MTT, LD50
Format: cell-based
settings: BMKC cloned melanoma line, 24 hours with peptide
No end group written: not given here.
Lab note: compare LD50 BMKC with 200 µg/mL, writing label 1 if less and label 0 if equal or more.

Use these answered entries as a reference point.
substance	label.value
FAKLLAKLAKKFAL-NH2 [P120, FAKLLAKLAKKFAL-NH2]	label 0
FAVGLRAIKRALKKLRRGVRKVAKDL-NH2 [P157, reference compound]	label 0
FAKLLFKALKKAL-NH2 [P112, FAKLLFKALKKAL-NH2]	label 0
FALALKA-NH2 [P141, FALALKA-NH2]	label 0
FALALKALKKLAKKLKKLAKKAL-NH2 [P25]	label 1

Now consider the entry below.
Prompt line: Decide: LD50 BMKC of FALALKALKKL-NH2 [P165] strictly below 200 µg/mL?
Response line: label 0

----------
Tested on: Escherichia coli ATCC 25922
assay.protocol: Antimicrobial assay I, modified protocol (tryptic soy broth), MBC
settings: minimum bactericidal concentration, Table 4
No end group written: not given here.
Documented MBC E. coli A.25922 across a set of substances
Answer format: numeric, µg/mL implied, no suffix.

Answered examples (8):
substance	MBC E. coli A.25922, µg/mL
FALALKALKKALKKLKKALKKAL-OH [compound 1]	25
FAKLLAKLAKKLL-NH2 [compound 43]	8
FALALKKALKALKKAL-NH2 [compound 34]	15
FAKALAKLAKKLL-NH2 [compound 92]	40
FAKKLAKLALKLAKL-NH2 [compound 44]	10
FALKALKKAL-NH2 [compound 170]	25
FAKLLAKLAKKVL-NH2 [compound 124]	10
FALALKALKKLKKALKKAL-NH2 [compound 27]	10

Prompt line: Please supply the value of reported MBC E. coli A.25922 for the item FAKLLFKALKKAL-NH2 [compound 112]
Response line: 30

Prompt line: Please supply the value of reported MBC E. coli A.25922 for the item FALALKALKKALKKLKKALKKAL-NH2 [compound 2]
Response line: 25

Prompt line: Please supply the value of reported MBC E. coli A.25922 for the item VALALKALKKALKKLKKALKKAL-NH2 [compound 30]
Response line: 10

Prompt line: Please supply the value of reported MBC E. coli A.25922 for the item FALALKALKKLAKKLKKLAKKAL-NH2 [compound 25]
Response line: 40

Prompt line: Please supply the value of reported MBC E. coli A.25922 for the item FAKKLAKLAKKLLAL-NH2 [compound 38]
Response line: 15

Prompt line: Please supply the value of reported MBC E. coli A.25922 for the item FAKLLAKALKKFL-NH2 [compound 118]
Response line: 8

Prompt line: Please supply the value of reported MBC E. coli A.25922 for the item FAKLLAKLAK-NH2 [compound 123]
Response line: 40

----------
Tested on: WI38
settings: MTT, 24 hours with peptide; normal fibroblast line
No end group written: not given here.
measurement.label: WI38 LD50 (µg/mL)
Answer format: numeric, µg/mL implied, no suffix.

Answered examples (3):
substance	obs.value
FALAKLAKKAKAKLKKALKAL-NH2 [P26]	96
FALALKKALKALKKAL-NH2 [P34]	40
FAKKLAKKLAKLAL-NH2 [P45, FAKKLAKKLAKLAL-NH2]	200

Prompt line: Return reported WI38 LD50 for target or system WI38, item FALAAKALKKLAKKLKKLAKKAL-NH2 [P23] .
Response line: 34

Prompt line: Return reported WI38 LD50 for target or system WI38, item FAKLLAKLAK-NH2 [P123] .
Response line: 600

Prompt line: Return reported WI38 LD50 for target or system WI38, item FKRLAKIKVLRLAKIKR-NH2 [P147] .
Response line: 83

Prompt line: Return reported WI38 LD50 for target or system WI38, item FALKALKKLKKALKKAL-NH2 [P153] .
Response line: 130

Prompt line: Return reported WI38 LD50 for target or system WI38, item FAKLLFKALKKAL-NH2 [P112, FAKLLFKALKKAL-NH2] .
Response line: 420

Prompt line: Return reported WI38 LD50 for target or system WI38, item FALALKALKKLLKKLKKLAKKAL-NH2 [P24] .
Response line: 55

Prompt line: Return reported WI38 LD50 for target or system WI38, item FAKLLAKLAKKIL-NH2 [P125] .
Response line: 90

Prompt line: Return reported WI38 LD50 for target or system WI38, item VAKLLAKLAKKVL-NH2 [P154] .
Response line: 600

Prompt line: Return reported WI38 LD50 for target or system WI38, item FAKKLLAKALKL-NH2 [P110] .
Response line: 45
